- Tested on: HL-60
- Test name: cell viability (% survival relative to DMSO control); higher = less cytotoxic
- Run conditions: 0.001 µM; 72 h; co-treatment: GSK2194069 100 nM
Result type: cell viability (%)
Answers are plain numbers, in %.

# example entries with known answers
Cc1nc(-c2ccccc2)sc1C(=O)Nc1ccc(S(N)(=O)=O)cc1 : 99.3
O=C(NCCN1CCC(n2c(O)nc3ccccc32)CC1)c1cc2cc(F)ccc2[nH]1 [FIPI] : 98.6
Cc1ccc(-c2cc(C(F)(F)F)nn2-c2ccc(S(N)(=O)=O)cc2)cc1 [Celecoxib] : 101
N[C@@H](CC(=O)N1CCn2c(nnc2C(F)(F)F)C1)Cc1cc(F)c(F)cc1F [Sitagliptin] : 97.9
OC[C@H]1O[C@@H](n2cnc3c2N=CNC[C@H]3O)C[C@@H]1O [Pentostatin] : 86.6

// for each compound in input: emit cell viability
1. CC(C)(C)c1ccc(S(=O)(=O)NCc2ccc(C(=O)Nc3cccnc3)cc2)cc1 [STF-31]
2. O=c1cc(N2CCOCC2)oc2c(-c3ccccc3)cccc12
3. Cc1c(Cl)cccc1S(=O)(=O)Nc1nc(CC(=O)N2CCN(C)CC2)cs1 [BVT-2733]
4. CC(C)CC(=O)N[C@H](C(=O)N[C@H](C(=O)N[C@@H](CC(C)C)[C@@H](O)CC(=O)N[C@@H](C)C(=O)N[C@@H](CC(C)C)[C@@H](O)CC(=O)O)C(C)C)C(C)C [Pepstatin A]
5. CCCCCN(C)CCC(O)(P(=O)(O)O)P(=O)(O)O [Ibandronate]
6. C=CCN(C)CCCCCCOc1ccc(C(=O)c2ccc(Br)cc2)c(F)c1.O=C(O)/C=C/C(=O)O [Ro 48-8071 fumarate]
7. CCN(CC)C(=S)SSC(=S)N(CC)CC [Disulfiram]

1. 101
2. 107
3. 104
4. 100
5. 98.3
6. 103
7. 100

Items follow; give cell viability for each.
1. O=C([O-])CC(O)(C(=O)[O-])C(O)C(=O)[O-].[K+].[K+].[K+] (centres undefined) [Hydroxycitrate]
2. CO[C@H]1C[C@@H]2CC[C@@H](C)[C@@](O)(O2)C(=O)C(=O)N2CCCC[C@H]2C(=O)O[C@H]([C@H](C)C[C@@H]2CC[C@@H](OC(=O)C(C)(CO)CO)[C@H](OC)C2)CC(=O)[C@H](C)/C=C(\C)[C@@H](O)[C@@H](OC)C(=O)[C@H](C)C[C@H](C)/C=C/C=C/C=C/1C [Temsirolimus]

1: 101; 2: 92.3

----------
- Test system: HL-60
- Test name: cell viability (% survival relative to DMSO control); higher = less cytotoxic
- Run conditions: 0.1 µM; 72 h; co-treatment: GSK2194069 100 nM
Can you tell me cell viability for the items I'm about to list?
Answers are plain numbers, in %.

// below: answered molecules
CCCCCCCC/C=C\CCCCCCCC(=O)Nc1ccccc1 [Octadec-9-Enoic Acid Phenylamide] : 103
CN(CCOc1ccc(Cc2sc(O)nc2O)cc1)c1ccccn1 : 98.5
N#C/C(=C\c1ccc(O)cc1)C(=O)O [alpha-cyano-4-hydroxycinnamic acid] : 98.6
O=C(/C=C/c1ccc(O)c(O)c1)OCCc1ccccc1 : 102

Query molecule follows.
Notebook: `Cc1[nH]nc(C(F)(F)F)c1Cc1sc2c(c1C(=O)N1C[C@](C)(O)CO1)c(=O)n(C)c(=O)n2C(C)C` , cell viability read as 108

----------
- Tested on: Mono-Mac-6
- Test name: cell viability (% survival relative to DMSO control, bortezomib = 0%); higher = less cytotoxic
- Run conditions: 100 nM; 72 h
Field: cell viability. Provide a value for each of the compounds that follow.
One number for each entry, in %.

Study these solved cases before continuing.
CCOC(=O)c1sc(NC(=O)c2ccco2)c(SC#N)c1C [CBR-5884] : 102
CCCc1nc(C)c2c(=O)nc(-c3cc(S(=O)(=O)N4CCN(CC)CC4)ccc3OCC)[nH]n12 [Vardenafil] : 106
CC(C)(C)c1ccc(S(=O)(=O)NCc2ccc(C(=O)Nc3cccnc3)cc2)cc1 [STF-31] : 105
O=C([O-])CC(O)(C(=O)[O-])C(O)C(=O)[O-].[K+].[K+].[K+] (centres undefined) [Hydroxycitrate] : 98

Would you mind listing cell viability for each of the following compounds?
1. Cc1ccc(-c2cc(C(F)(F)F)nn2-c2ccc(S(N)(=O)=O)cc2)cc1 [Celecoxib]
2. CN(CCCOc1ccc(Cc2ccccc2)cc1)CCC(=O)O
3. O=C(NCCN1CCC(n2c(O)nc3ccccc32)CC1)c1cc2cc(F)ccc2[nH]1 [FIPI]

1. 105
2. 101
3. 106

Dear reader, for each entry below, please note its cell viability.
1. CC[C@H](C)[C@H](N)C(=O)N1CCSC1 [P32/98]
2. CCCCCCCC/C=C\CCCCCCCC(=O)Nc1ccccc1 [Octadec-9-Enoic Acid Phenylamide]
3. C[C@H]1c2cccc(O)c2C(=O)C2C(=O)[C@]3(O)C(=O)C(C(N)=O)C(=O)[C@@H](N(C)C)[C@@H]3[C@@H](O)[C@@H]21 (some centres undefined) [Doxycycline]

[109, 108, 109]

For every record below, what is its cell viability?
1. Cn1cc(-c2ccncc2)c(-c2ccc(OCc3ccc4ccccc4n3)cc2)n1
2. CCCCCN(C)CCC(O)(P(=O)(O)O)P(=O)(O)O [Ibandronate]
3. CCc1c(C(=O)C(N)=O)c2c(OCC(=O)O)cccc2n1Cc1ccccc1 [Varespladib]

1. 89.5
2. 90
3. 93.7

cell viability reading for N#Cc1ccc(N(Cc2ccc(Br)cc2)n2cnnc2)cc1 [YM511] : 97

----------
For each record, write down the corresponding cell viability.
- Tested on: myeloid leukemia patient primary cells Pat.4
- Test name: cell viability (% survival relative to DMSO control); higher = less cytotoxic
- Run conditions: 100 nM; 72 h
Numbers only, in %.

Solved entries (count: 3):
C=CCN(C)CCCCCCOc1ccc(C(=O)c2ccc(Br)cc2)c(F)c1.O=C(O)/C=C/C(=O)O [Ro 48-8071 fumarate] : 88.3
C[C@]12C=CC(=O)C=C1CC[C@@H]1[C@@H]2[C@@H](O)C[C@@]2(C)[C@H]1CC[C@]2(O)C(=O)CO : 78.4
CO[C@H]1C[C@@H]2CC[C@@H](C)[C@@](O)(O2)C(=O)C(=O)N2CCCC[C@H]2C(=O)O[C@H]([C@H](C)C[C@@H]2CC[C@@H](OC(=O)C(C)(CO)CO)[C@H](OC)C2)CC(=O)[C@H](C)/C=C(\C)[C@@H](O)[C@@H](OC)C(=O)[C@H](C)C[C@H](C)/C=C/C=C/C=C/1C : 53.1

Now, please, on to the next molecule.
The reported value for `CO[C@H]1C[C@@H]2CC[C@@H](C)[C@@](O)(O2)C(=O)C(=O)N2CCCC[C@H]2C(=O)O[C@H]([C@H](C)C[C@@H]2CC[C@@H](OCCO)[C@H](OC)C2)CC(=O)[C@H](C)/C=C(\C)[C@@H](O)[C@@H](OC)C(=O)[C@H](C)C[C@H](C)/C=C/C=C/C=C/1C` in terms of cell viability is 47

----------
- Tested on: ML-2
- Test name: cell viability (% survival relative to DMSO control, bortezomib = 0%); higher = less cytotoxic
- Run conditions: 10 nM; 72 h
Result type: cell viability (%)
Numbers only, in %.

# example entries with known answers
CC[C@H](C)[C@H](N)C(=O)N1CCSC1 [P32/98] : 102
Cc1cc2c(C(C)C)c(O)c(O)c(C=O)c2c(O)c1-c1c(C)cc2c(C(C)C)c(O)c(O)c(C=O)c2c1O [Gossypol] : 103
COC(=O)c1cc2c(C(F)(F)F)cc(-c3ccccc3)cc2n1O [NHI-2] : 95.1

We next turn to a different compound, shown below.
So for CCCc1nc(C)c2c(=O)nc(-c3cc(S(=O)(=O)N4CCN(CC)CC4)ccc3OCC)[nH]n12 [Vardenafil] , the logged cell viability turned out to be 96.3

----------
- System: myeloid leukemia patient primary cells Pat.9
- Test name: cell viability (% survival relative to DMSO control); higher = less cytotoxic
- Run conditions: 100 nM; 72 h
Result type: cell viability (%)
Give bare numbers, in %.

# example entries with known answers
O=C1C(SCCO)=C(SCCO)C(=O)c2ccccc21 : 28.7
c1cc(-c2cnn3cc(-c4ccc(OCCN5CCCCC5)cc4)cnc23)ccn1 : 11.5
O=C(/C=C/c1ccc(O)c(O)c1)OCCc1ccccc1 : 8.63
CN1CCN(CCCN2c3ccccc3Sc3ccc(C(F)(F)F)cc32)CC1 : 65.3
CO[C@H]1C[C@@H]2CC[C@@H](C)[C@@](O)(O2)C(=O)C(=O)N2CCCC[C@H]2C(=O)O[C@H]([C@H](C)C[C@@H]2CC[C@@H](OCCO)[C@H](OC)C2)CC(=O)[C@H](C)/C=C(\C)[C@@H](O)[C@@H](OC)C(=O)[C@H](C)C[C@H](C)/C=C/C=C/C=C/1C : 87.7

Field cell viability (system: myeloid leukemia patient primary cells Pat.9) for entry `CC(C)(C)c1ccc(S(=O)(=O)NCc2ccc(C(=O)Nc3cccnc3)cc2)cc1` = 7.17

Values were extracted from the supplement of paper PMC8671470.
